# STUDY_SYSTEM: C-X-C chemokine receptor type 4 (Homo sapiens)
# Sequence (P61073 whole entry): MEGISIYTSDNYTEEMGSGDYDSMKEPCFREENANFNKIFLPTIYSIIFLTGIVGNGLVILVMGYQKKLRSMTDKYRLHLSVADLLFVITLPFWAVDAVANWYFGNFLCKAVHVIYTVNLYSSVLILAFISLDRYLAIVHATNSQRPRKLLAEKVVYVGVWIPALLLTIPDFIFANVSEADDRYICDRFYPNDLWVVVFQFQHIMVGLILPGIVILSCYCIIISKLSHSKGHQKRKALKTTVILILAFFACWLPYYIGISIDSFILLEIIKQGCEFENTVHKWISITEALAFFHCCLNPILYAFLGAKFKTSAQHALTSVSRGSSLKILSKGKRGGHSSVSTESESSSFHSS
# TEST_PROTOCOL: Inhibition of [125I]SDF1 binding to CXCR4 transfected in CHO cells
# Format: cell-based
PARAMETER_MEASURED: IC50 (nM)
Write the answer as a number in nM, unit excluded.

Known results for compounds:
CN1C(=O)[C@H](CCCNC(=N)N)NC(=O)[C@H](CCCNC(=N)N)NC(=O)[C@@H](Cc2ccc(O)cc2)NC(=O)CNC(=O)[C@@H]1Cc1ccc2ccccc2c1 = 250
C[C@H]1NC(=O)[C@H](Cc2ccc3ccccc3c2)NC(=O)[C@H](CCCNC(=N)N)NC(=O)[C@@H](CCCNC(=N)N)NC(=O)[C@@H](Cc2ccc(O)cc2)NC1=O = 11
CN1C(=O)[C@H](CCCNC(=N)N)NC(=O)[C@@H](CCCNC(=N)N)NC(=O)[C@@H](Cc2ccc(O)cc2)NC(=O)CNC(=O)[C@@H]1Cc1ccc2ccccc2c1 = 563

Q) Which IC50 is reported for this compound? C[C@@H]1NC(=O)[C@H](Cc2ccc3ccccc3c2)NC(=O)[C@H](CCCNC(=N)N)NC(=O)[C@H](CCCNC(=N)N)NC(=O)[C@@H](Cc2ccc(O)cc2)NC1=O
A) 170
